Here the recorded Activity is given for each entry.
tested on: SF-268; test: Cytotoxicity against human SF268 cells assessed as cellular growth at 10 uM by SRB assay; type: functional

Clc1ccc(-c2nc(-c3cccs3)no2)c(Cl)c1
99.25%
Nc1c(C(=O)Nc2cccc(Cl)c2)sc2nc3c(cc12)C(=O)CCC3
63.09%
CC1(C)CCc2cc(-c3ccn(S(=O)(=O)c4ccccc4Cl)n3)ccc2O1
96.38%
Cc1ccccc1NC(=O)c1sc2nc3c(cc2c1N)C(=O)CCC3
65.36%
Cc1ccc2c(c1)N/C(=C/C(=O)c1ccc(Cl)cc1)C(=O)O2
105.3%
Nc1c(C(=O)Nc2ccc(Cl)c(Cl)c2)sc2nc(-c3cccs3)ccc12
85.77%

Look at this compound and give its reported Activity. COc1ccc(S(=O)(=O)n2ccc(-c3ccc4c(c3)CCC(C)(C)O4)n2)cc1 94.69%

Look at this compound and give its reported Activity. Cc1ccc(S(=O)(=O)Oc2ccc(-c3cnc4ccccc4n3)cc2)cc1 118.59%

Look at this compound and give its reported Activity. Nc1c(C(=O)Nc2ccccc2F)sc2nc3c(cc12)C(=O)CCC3 54.87%

Look at this compound and give its reported Activity. O=C(Nc1ccc2oc(=O)ccc2c1)c1ccc(-c2ccc(Cl)c(Cl)c2)o1 85.02%

----------
tested on: K562; assay: Cytotoxicity against human K562 cells assessed as cellular growth at 10 uM by SRB assay; assay type: functional
reported_metric: Activity (%)
Numbers only; they are read as %.

Nc1c(C(=O)Nc2cccc(Cl)c2)sc2nc3c(cc12)C(=O)CCC3
22.78
Cc1c(OCC(=O)c2ccccc2)ccc2c1oc(=O)c1ccccc12
100.66
O=c1/c(=C/c2ccccc2)sc2nc(-c3ccc(Cl)cc3Cl)nn12
99.39
O=c1/c(=C/c2ccc(Cl)cc2Cl)sc2nc(-c3ccccc3)nn12
98.67
Nc1c(C(=O)NCc2ccccc2)sc2nc3c(cc12)C(=O)CCC3
111.11

Look at this molecule and give its reported Activity. Cc1cccc(-c2nc(-c3cccs3)no2)c1 94.59

Look at this molecule and give its reported Activity. O=S(=O)(Oc1ccc(-c2cnc3ccccc3n2)cc1)c1ccccc1 81.89

----------
tested on: CCRF-CEM; assay: Cytotoxicity against human CCRF-CEM cells by SRB assay; type: functional
Here the recorded GI50 is given for each entry.
Mention the unit after the number when you answer.

Cc1ccc(Cl)cc1NC(=O)c1sc2nc3c(cc2c1N)C(=O)CCC3
3500 nM
Cc1ccccc1NC(=O)c1sc2nc3c(cc2c1N)C(=O)CCC3
4300 nM
Cc1cc(C)c(NC(=O)c2sc3nc4c(cc3c2N)C(=O)CCC4)c(C)c1
3600 nM

Look at this molecule and give its reported GI50. Nc1c(C(=O)Nc2ccccc2F)sc2nc3c(cc12)C(=O)CCC3 1800 nM

Look at this molecule and give its reported GI50. Nc1c(C(=O)Nc2cccc(Cl)c2)sc2nc3c(cc12)C(=O)CCC3 200 nM

Look at this molecule and give its reported GI50. Nc1c(C(=O)Nc2ccccc2)sc2nc3c(cc12)C(=O)CCC3 520 nM

----------
Here the recorded Activity is given for each entry.
tested on: OVCAR-4; experiment: Cytotoxicity against human OVCAR4 cells assessed as cellular growth at 10 uM by SRB assay; assay type: functional
Numbers only; they are read as %.

Worked set:
COc1cc(/C=c2/sc3nc4ccccc4n3c2=O)cc(I)c1O
96.8
Cc1c(OCC(=O)c2ccccc2)ccc2c1oc(=O)c1ccccc12
106.31
Cc1ccc(CNC(=O)c2[nH]c3ccccc3c2Cl)cc1
101.65

Look at this compound and give its reported Activity. O=S(=O)(Oc1ccc(-c2cnc3ccccc3n2)cc1)c1ccccc1 96.73

Look at this compound and give its reported Activity. O=C(NCc1cccnc1)c1sc2cc([N+](=O)[O-])ccc2c1Cl 102.6

Look at this compound and give its reported Activity. Clc1ccccc1Nc1nnc(-c2ccncc2)s1 94.51

Look at this compound and give its reported Activity. O=C(NCCc1ccccc1)c1cc2cccc([N+](=O)[O-])c2[nH]1 75.65

Look at this compound and give its reported Activity. CC1(C)CC(=O)c2cc3c(N)c(C(=O)NCc4ccccc4)sc3nc2C1 78.52

Look at this compound and give its reported Activity. Nc1c(C(=O)NCc2ccccc2)sc2nc3c(cc12)C(=O)CCC3 117.19

Look at this compound and give its reported Activity. Clc1ccc(-c2nc(-c3cccs3)no2)cc1 65.77

Look at this compound and give its reported Activity. COc1ccc2[nH]c(C(=O)NCc3ccccc3)cc2c1 93.84

----------
test system: OVCAR-4; assay: Cytotoxicity against human OVCAR4 cells assessed as cellular growth at 10 uM by SRB assay; assay type: functional
reported_metric: Activity

Cc1ccc(NC(=O)c2sc3nc4c(cc3c2N)C(=O)CCC4)c(Br)c1
105.66%
O=C(Nc1nc2ccccc2s1)c1ccc(F)cc1
85.42%
N#Cc1ccc(NC(=O)c2sc3nc4c(cc3c2N)C(=O)CCC4)cc1
105.84%
Cc1ccc(Cl)cc1NC(=O)c1sc2nc3c(cc2c1N)C(=O)CCC3
90.15%
O=C(NCc1ccc(Cl)cc1)c1[nH]c2ccccc2c1Cl
100.82%
O=C1N=C(c2ccccc2)S/C1=C\c1ccc2c(c1)OCO2
100.96%

Look at this molecule and give its reported Activity. Cc1ccccc1NC(=O)c1sc2nc3c(cc2c1N)C(=O)CCC3 67.57%

Look at this molecule and give its reported Activity. N#Cc1ccc(-n2nnc3ccccc32)cc1C#N 110.46%

----------
tested on: K562; assay: Cytotoxicity against human K562 cells assessed as cellular growth at 10 uM by SRB assay; assay type: functional
Given measured Activity, output T if it is greater than or equal to 90% and F if not.

Cc1ccc(S(=O)(=O)Oc2ccc(-c3cnc4ccccc4n3)cc2)cc1
F
O=C(NCc1cccnc1)c1sc2cc([N+](=O)[O-])ccc2c1Cl
T
Oc1ccccc1-c1nc(-c2cccs2)no1
T

We now examine a further compound.
Determine whether measured Activity meets or exceeds 90% for Cc1ccc(CNC(=O)c2[nH]c3ccccc3c2Cl)cc1 T

----------
Here the recorded Activity is given for each entry.
test system: MDA-MB-468; experiment: Cytotoxicity against human MDA-MB-468 cells assessed as cellular growth at 10 uM by SRB assay; format: functional
Numbers only; they are read as %.

Worked set:
O=C(Nc1ccc(S(=O)(=O)Nc2nccs2)cc1)c1cccs1
102.57
CC1(C)CC(=O)c2cc3c(N)c(C(=O)Nc4ccc(F)cc4)sc3nc2C1
112.64
O=C(NCCc1ccccc1)c1cc2cccc([N+](=O)[O-])c2[nH]1
90.5
O=C1N=C(c2ccccc2)S/C1=C\c1ccc2c(c1)OCO2
98.71

Look at this molecule and give its reported Activity. COc1ccc(S(=O)(=O)n2ccc(-c3ccc4c(c3)CCC(C)(C)O4)n2)cc1 36.58

Look at this molecule and give its reported Activity. Cc1ccc2c(c1)N/C(=C/C(=O)c1ccc(Cl)cc1)C(=O)O2 107.35

Look at this molecule and give its reported Activity. Cc1ccc(CNC(=O)c2[nH]c3ccccc3c2Cl)cc1 106.86

Look at this molecule and give its reported Activity. N#Cc1ccc(-n2nnc3ccccc32)cc1C#N 99.52

Look at this molecule and give its reported Activity. COc1cc(/C=c2/sc3nc4ccccc4n3c2=O)cc(I)c1O 71.12

----------
system: NCI-H460; assay: Cytotoxicity against human NCI-H460 cells assessed as cellular growth at 10 uM by SRB assay; assay type: functional
Here the recorded Activity is given for each entry.
Numbers only; they are read as %.

Worked set:
O=c1/c(=C/c2ccccc2Cl)sc2nc(-c3ccccc3)nn12
99.8
CC1(C)CCc2cc(-c3ccn(S(=O)(=O)c4ccccc4Cl)n3)ccc2O1
79.3

Query for NCI-H460: what Activity does the record show for N#Cc1ccc(-n2nnc3ccccc32)cc1C#N ? 106.55

Query for NCI-H460: what Activity does the record show for Nc1c(C(=O)Nc2ccc(Cl)c(Cl)c2)sc2nc(-c3cccs3)ccc12 ? 103.53

Query for NCI-H460: what Activity does the record show for Cc1cc(C)c(NC(=O)c2sc3nc4c(cc3c2N)C(=O)CCC4)c(C)c1 ? 6.43

Query for NCI-H460: what Activity does the record show for O=c1/c(=C/c2ccc(Cl)cc2Cl)sc2nc(-c3ccccc3)nn12 ? 106.83

Query for NCI-H460: what Activity does the record show for CC1(C)CC(=O)c2cc3c(N)c(C(=O)Nc4ccc(F)cc4)sc3nc2C1 ? 104.48

----------
system: MOLT-4; test: Cytotoxicity against human MOLT4 cells assessed as cellular growth at 10 uM by SRB assay; format: functional
Here the recorded Activity is given for each entry.
Numbers only; they are read as %.

Worked set:
CC1(C)CCc2cc(-c3ccn(S(=O)(=O)c4cccc(C(F)(F)F)c4)n3)ccc2O1
66.45
Nc1c(C(=O)Nc2ccc(Cl)c(Cl)c2)sc2nc(-c3cccs3)ccc12
83.49
O=C(NCc1cccnc1)c1sc2cc([N+](=O)[O-])ccc2c1Cl
93.36
Cc1ccc(C(=O)/C=C2/Nc3ccc(C)cc3OC2=O)cc1
83.44
Oc1ccccc1-c1nc(-c2cccs2)no1
99.05
Cc1ccc(NC(=O)c2sc3nc4c(cc3c2N)C(=O)CCC4)cc1Cl
107.73

Query for MOLT-4: what Activity does the record show for COc1cc(/C=c2/sc3nc4ccccc4n3c2=O)cc(I)c1O ? 78.31

Query for MOLT-4: what Activity does the record show for O=C(Nc1nc2ccc(Cl)cc2s1)c1ccc(Cl)cc1Cl ? 93.88

Query for MOLT-4: what Activity does the record show for CC1(C)CC(=O)c2cc3c(N)c(C(=O)Nc4ccc(F)cc4)sc3nc2C1 ? 121.66

Query for MOLT-4: what Activity does the record show for Nc1c(C(=O)NCc2ccccc2)sc2nc3c(cc12)C(=O)CCC3 ? 119.87

Query for MOLT-4: what Activity does the record show for O=C(NCCc1ccccc1)c1cc2cccc([N+](=O)[O-])c2[nH]1 ? 91.34
